target: Syk catalytic domain (aa 356-635 with a C-terminal His-tag) (Homo sapiens, UniProt P43405); construct: His-tag (C); made in house; experiment: In vitro Syk kinase activity measured by trFRET, Syk catalytic domain; type: biochemical; settings: Syk catalytic domain (aa 356-635), trFRET, 0.001 mM ATP
IC50: recorded values

Worked examples follow.
# smiles_text, readout_value
rows = [
    ("COc1ccc2c(c1)c(-c1cc3c(ncc4cnc(CCN)n43)[nH]1)cn2C", "< 0.1 µM"),
    ("CCc1c[nH]c2ncc3c(-c4cnn(C)c4)nn(C)c3c12", "0.1 to 1 µM"),
    ("COc1ccc2c(c1)c(-c1cc3c(ncc4cnc(N(C)C)n43)[nH]1)cn2C", "< 0.1 µM"),
    ("COc1ccc(-c2nc(C3CCN(C)CC3)n3c2cnc2[nH]ccc23)cc1", "1 to 10 µM"),
]

Asked: Would you kindly share the measured IC50 for "COc1ccc2c(c1)c(-c1cc3c(ncc4cnc(C5CCOCC5)n43)[nH]1)cn2C" ?
Given back: < 0.1 µM

Asked: // query: "c1ccc(-c2nc(C3CCCCC3)n3c2cnc2[nH]ccc23)cc1"
Given back: 1 to 10 µM

Asked: // query: "COc1ccc2c(c1)c(-c1cc3c(ncc4cnn(C)c43)[nH]1)cn2CCO"
Given back: < 0.1 µM

Asked: // query: "CCc1c[nH]c2ncc3c(-c4ccc(OC(C)C)cc4)nn(C)c3c12"
Given back: 0.1 to 1 µM

Asked: // query: "CC(C)(O)c1ccc(-c2nc(C3CCOCC3)n3c2cnc2[nH]ccc23)cc1"
Given back: 0.1 to 1 µM

Asked: // query: "COCCCNC(=O)Cc1cccc(-c2cc3c(ncc4cnn(C)c43)[nH]2)c1"
Given back: 0.1 to 1 µM

Asked: // query: "Cn1ncc2cnc3[nH]c(-c4cccc(CNS(C)(=O)=O)c4)cc3c21"
Given back: 0.1 to 1 µM

Asked: // query: "Cc1ncc2cnc3[nH]c(-c4cccc(C(=O)NCCN5CCOCC5)c4)cc3n12"
Given back: 0.1 to 1 µM

Asked: // query: "Cn1cc(-c2cc3c(ncc4cnn(C)c43)[nH]2)c2cc(C(=O)N3CCC(CO)CC3)ccc21"
Given back: < 0.1 µM

Asked: // query: "Cc1nc(-c2ccc(C(C)(C)O)cc2)c2cnc3[nH]cc(C#N)c3n12"
Given back: < 0.1 µM

Asked: // query: "CCc1c(-c2ccc(C(=O)NCCN3CCOCC3)cc2)[nH]c2ncc3cnn(C)c3c12"
Given back: 0.1 to 1 µM

Asked: // query: "Cn1cc(-c2cc3c(ncc4cnn(C)c43)[nH]2)c2cc(C(=O)O)ccc21"
Given back: < 0.1 µM

Asked: // query: "Cc1nc(-c2ccc(C3(O)CCN(C(=O)CC#N)CC3)cc2)c2cnc3[nH]ccc3n12"
Given back: < 0.1 µM

* * *

Biological target: Syk catalytic domain (aa 356-635 with a C-terminal His-tag) (Homo sapiens, UniProt P43405)
Construct: His-tag (C); made in house
Experiment: In vitro Syk kinase activity measured by trFRET, Syk catalytic domain
Type: biochemical
Details: Syk catalytic domain (aa 356-635), trFRET, 0.001 mM ATP
Description: In Vitro Syk Kinase Activity Measured by Time-Resolved Fluorescence Resonance Energy Transfer (trFRET) 0.14 nM purified Syk catalytic domain (aa 356-635 with a C-terminal His-tag purified in-house by immobilized metal ion affinity chromatography) was mixed with 0.2 μM peptide substrate (biotin-TYR1, Sequence: Biotin-(Ahx)-GAEEEIYAAFFA-COOH) at varying inhibitor concentrations in reaction buffer: 50 mM MOPSO pH 6.5, 10 mM MgCl2, 2 mM MnCl2, 2.5 mM DTT, 0.01% BSA, 0.1 mM Na3VO4 and 0.001 mM ATP. […]
pIC50: −log10 of the molar value.
pIC50: recorded values

Worked examples follow.
# compound, readout_value
data = [
    ("Cc1nc(-c2ccc(C(C)(C)O)c(Cl)c2)c2cnc3[nH]ccc3n12", "> 7.00"),
    ("COc1ccc2c(c1)c(-c1cc3c(ncc4cnc(CCCN)n43)[nH]1)cn2C", "> 7.00"),
    ("COc1ccc(-c2nc(C)n3c2cnc2[nH]ccc23)cc1C(=O)NCCN(C)C", "6.00 to 7.00"),
    ("Cc1nnc2cnc3[nH]c(-c4cnn(C)c4)cc3n12", "5.00 to 6.00"),
    ("CC(C)(O)c1ccc(-c2nc(N3CCC(CN)C3)n3c2cnc2[nH]ccc23)cc1 (stereo not drawn)", "> 7.00"),
    ("COc1ccc2c(c1)c(-c1cc3c(ncc4cnc(N5CCCC5)n43)[nH]1)cn2C", "> 7.00"),
    ("COc1ccc2c(c1)c(-c1cc3c(ncc4cnc(CCC#N)n43)[nH]1)cn2C", "> 7.00"),
    ("Cn1ncc2cnc3[nH]c(-c4cccc(S(N)(=O)=O)c4)cc3c21", "> 7.00"),
]

Asked: Would you kindly share the measured pIC50 for "CSc1ccc(-c2nn(C)c3c2cnc2[nH]ccc23)cc1" ?
Given back: > 7.00

Asked: // query: "Cc1nc(-c2ccc(C3(O)CCN(C(=O)OC(C)(C)C)CC3)cc2)c2cnc3[nH]ccc3n12"
Given back: > 7.00

Asked: // query: "COc1ccc(-c2nc(C)n3c2cnc2[nH]ccc23)cc1C(=O)NCCO"
Given back: 6.00 to 7.00

Asked: // query: "CCOCCCNC(=O)Cn1cccc1-c1cc2c(ncc3cnn(C)c32)[nH]1"
Given back: 5.00 to 6.00

Asked: // query: "Cn1ncc2cnc3[nH]c(-c4ccc5nccnc5c4)cc3c21"
Given back: 6.00 to 7.00

Asked: // query: "CCc1c[nH]c2ncc3c(-c4cc(OC)c(OC)c(OC)c4)nn(C)c3c12"
Given back: 5.00 to 6.00

Asked: // query: "Cn1cc(-c2cc3c(ncc4cnn(C)c43)[nH]2)c2cc(C(=O)NCCO)ccc21"
Given back: > 7.00

Asked: // query: "Cn1ncc2cnc3[nH]c(-c4cnc5n4CCC5)cc3c21"
Given back: 5.00 to 6.00

Asked: // query: "CNS(=O)(=O)c1cccc(-c2cc3c(ncc4cnn(C)c43)[nH]2)c1"
Given back: > 7.00

* * *

target: Syk catalytic domain (aa 356-635 with a C-terminal His-tag) (Homo sapiens, UniProt P43405); construct: His-tag (C); made in house; assay: In vitro Syk kinase activity measured by trFRET, Syk catalytic domain; assay type: biochemical
measurement_label: IC50

Worked examples follow.
# smiles_text, IC50
rows = [
    ("CCCNC(=O)c1cccc(-c2nc(C)n3c2cnc2[nH]ccc23)c1", "100 to 1000 nM"),
    ("Cc1nc(-c2ccc(C(C)(C)CO)cc2)c2cnc3[nH]ccc3n12", "< 100 nM"),
    ("Cc1nc(-c2ccc(C3(CO)CC3)cc2)c2cnc3[nH]ccc3n12", "100 to 1000 nM"),
]

Asked: Would you kindly share the measured IC50 for "COc1ccc(-c2nc(C)n3c2cnc2[nH]ccc23)c(C)c1" ?
Given back: > 10000 nM

Asked: // query: "CC(C)(N)CCc1nc(-c2ccc(C(C)(C)O)cc2)c2cnc3[nH]ccc3n12"
Given back: 100 to 1000 nM

* * *

pIC50: recorded values
biological target: Syk catalytic domain (aa 356-635 with a C-terminal His-tag) (Homo sapiens, UniProt P43405); construct: His-tag (C); made in house; assay: In vitro Syk kinase activity measured by trFRET, Syk catalytic domain; assay type: biochemical
pIC50: −log10 of the molar value.

Worked examples follow.
# molecule, measurement_label, readout_value
records = [
    ("COCCNC(=O)c1ccc(-c2nc(C3CCCCC3)n3c2cnc2[nH]ccc23)cc1 [AC.3.17]", "pIC50", "6.00 to 7.00"),
    ("Cc1c(-c2ccc(C(C)(C)O)cc2)[nH]c2ncc3nncn3c12 [S.1.4]", "pIC50", "6.00 to 7.00"),
    ("Cc1cc(-c2nc(C)n3c2cnc2[nH]ccc23)ccc1N1CCN(C)CC1 [AC.1.30]", "pIC50", "> 7.00"),
]

Next molecule, please.
Asked: Would you kindly share the measured pIC50 for CC(=O)c1cccc(-c2nc(C3CCCCC3)n3c2cnc2[nH]ccc23)c1 [AC.3.4] ?
Given back: 6.00 to 7.00

* * *

target: Syk catalytic domain (aa 356-635 with a C-terminal His-tag) (Homo sapiens); construct: His-tag (C); made in house; experiment: In vitro Syk kinase activity measured by trFRET, Syk catalytic domain; type: biochemical; conditions: Syk catalytic domain (aa 356-635), trFRET, 0.001 mM ATP
pIC50: −log10 of the molar value.
measurement_label: pIC50

Worked examples follow.
# compound, pIC50
rows = [
    ("Cn1cc(-c2cc3c(ncc4cnn(C)c43)[nH]2)c2cc(C(=O)NC(C)(C)CO)ccc21 [J.2.2.1]", "> 7.00"),
    ("CCc1c(-c2cccc3c2ccn3C)[nH]c2ncc3cnn(C)c3c12 [N.1.16]", "< 5.00"),
    ("COc1ccc2[nH]cc(-c3cc4c(ncc5cnn(C)c54)[nH]3)c2c1 [N.1.19]", "> 7.00"),
]

Asked: Would you kindly share the measured pIC50 for COc1ccc(-c2nc(C3CC3)n3c2cnc2[nH]ccc23)cc1 [N.1.87] ?
Given back: > 7.00

Asked: // query: Cn1ncc2cnc3[nH]c(-c4cccc(C(=O)NCCN5CCOCC5)c4)cc3c21 [N.1.6]
Given back: > 7.00

Asked: // query: COc1ccc(-c2nc(CNC3CC3)n3c2cnc2[nH]ccc23)cc1 [N.1.114]
Given back: 5.00 to 6.00

Asked: // query: CCc1c[nH]c2ncc3c(-c4ccc(C(=O)NC5CC5)cc4)nn(C)c3c12 [N.1.70]
Given back: 6.00 to 7.00

Asked: // query: CN1CCN(C(=O)CNC(=O)c2ccc3c(c2)c(-c2cc4c(ncc5cnn(C)c54)[nH]2)cn3C)CC1 [J.1.8.6]
Given back: > 7.00

Asked: // query: CCCCC(=O)NCc1cccc(-c2cc3c(ncc4cnn(C)c43)[nH]2)c1 [J.1.1.4]
Given back: 6.00 to 7.00
